// values below are pKd; system is kinase enzymes (Homo sapiens, UniProt P42336)
Sequence (P42336 whole entry): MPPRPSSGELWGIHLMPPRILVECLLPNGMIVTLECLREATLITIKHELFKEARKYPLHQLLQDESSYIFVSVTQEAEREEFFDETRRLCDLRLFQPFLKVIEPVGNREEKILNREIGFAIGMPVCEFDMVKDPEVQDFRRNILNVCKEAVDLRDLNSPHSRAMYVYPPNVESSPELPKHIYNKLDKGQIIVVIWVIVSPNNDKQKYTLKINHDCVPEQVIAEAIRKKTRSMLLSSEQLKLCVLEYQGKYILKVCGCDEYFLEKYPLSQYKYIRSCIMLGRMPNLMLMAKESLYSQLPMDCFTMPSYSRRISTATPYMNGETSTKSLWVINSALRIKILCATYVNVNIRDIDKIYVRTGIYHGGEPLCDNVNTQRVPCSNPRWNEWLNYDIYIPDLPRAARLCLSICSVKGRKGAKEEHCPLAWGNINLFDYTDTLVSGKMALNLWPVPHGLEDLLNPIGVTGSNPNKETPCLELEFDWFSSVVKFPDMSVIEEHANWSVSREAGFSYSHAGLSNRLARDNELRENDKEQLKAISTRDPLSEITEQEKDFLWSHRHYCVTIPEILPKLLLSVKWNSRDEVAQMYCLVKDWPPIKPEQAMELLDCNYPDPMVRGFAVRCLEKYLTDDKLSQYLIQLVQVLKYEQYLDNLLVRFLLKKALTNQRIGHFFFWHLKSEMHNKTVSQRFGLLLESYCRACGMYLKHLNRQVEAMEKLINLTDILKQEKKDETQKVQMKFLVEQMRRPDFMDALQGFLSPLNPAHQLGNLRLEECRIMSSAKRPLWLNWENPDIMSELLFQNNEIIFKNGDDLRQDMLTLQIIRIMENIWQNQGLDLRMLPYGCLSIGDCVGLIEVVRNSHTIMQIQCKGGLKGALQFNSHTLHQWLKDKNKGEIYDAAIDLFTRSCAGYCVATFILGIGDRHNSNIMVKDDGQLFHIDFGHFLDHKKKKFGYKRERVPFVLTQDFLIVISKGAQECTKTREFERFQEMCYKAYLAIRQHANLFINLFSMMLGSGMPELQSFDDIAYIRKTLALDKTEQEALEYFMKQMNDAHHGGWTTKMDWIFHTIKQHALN
pKd: −log10 of the molar value.
measuredEndpoint: pKd

>>> measuredvalue("CC(Nc1cc(F)cc(F)c1)c1cc(C(=O)NC[C@@H](C)O)cc2ncc(N3CCOCC3)nc12 (single isomer, unassigned) [Compound 201]")
5.84
>>> measuredvalue("CC(Nc1ccc(F)c(F)c1)c1cc(C(=O)NC[C@@H](C)O)cc2ncc(N3CCOCC3)nc12 (single isomer, unassigned) [Compound 346a]")
5.60
>>> measuredvalue("CC(Nc1ccc(F)c(F)c1)c1cc(C(=O)NCC2CCCN2)cc2ncc(N3CCOCC3)nc12 (single isomer, unassigned) [Compound 329a]")
6.47
>>> measuredvalue("CC(C)NCCNC(=O)c1cc(C(C)Nc2cc(F)c(F)c(F)c2)c2nc(N3CCOCC3)cnc2c1 (single isomer, unassigned) [Compound 283a]")
4.92
>>> measuredvalue("Cc1c(F)cccc1CN(C)c1cc(C(=O)N(C)[C@@H]2CCNC2)cc2ncc(N3CCOCC3)nc12")
4.95
>>> measuredvalue("CN(C)C(=O)c1cc(N2CCCC2c2cc(F)cc(F)c2)c2nc(N3CCOCC3)cnc2c1 (single isomer, unassigned) [Compound 395b]")
5.40
>>> measuredvalue("CN(CCO)C(=O)c1cc(C2CCCN2c2cc(F)cc(F)c2)c2nc(N3CCOCC3)cnc2c1 (stereo not drawn)")
7.96
>>> measuredvalue("O=C(NCCO)c1cc(NCc2cccc(F)c2C2CCNCC2)c2nc(N3CCOCC3)cnc2c1")
5.21
>>> measuredvalue("CC(Nc1ccc(F)c(F)c1)c1cc(C(=O)N(C)CCN(C)C)cc2ncc(N3CCOCC3)nc12 (single isomer, unassigned) [Compound 349a]")
6.09
>>> measuredvalue("CNCCN(C)C(=O)c1cc(C(C)Nc2cc(F)c(F)c(F)c2)c2nc(N3CCOCC3)cnc2c1 (single isomer, unassigned) [Compound 335b]")
5.08
>>> measuredvalue("Cc1cc(C2CCCN2c2cc(F)cc(F)c2)c2nc(N3CCOCC3)cnc2c1 (single isomer, unassigned)")
5.50
>>> measuredvalue("CN(C)C(=O)c1cc(C2CCCN2c2cccc(C(F)(F)F)c2)c2nc(N3CCOCC3)cnc2c1 (stereo not drawn)")
5.21
>>> measuredvalue("O=C(NCCO)c1cc(NCc2cc(F)cc(F)c2)c2nc(N3CCOCC3)cnc2c1")
5.41
>>> measuredvalue("CCOC(=O)CNC(=O)c1cc(C(C)Nc2cccc(F)c2)c2nc(N3CCOCC3)cnc2c1 (stereo not drawn) [Compound 392a]")
5.40
